# Test system: cathepsin B (cathepsin B like cysteine protease)

{"compound": "CC(C)C[C@H](NC(=O)[C@H]1O[C@@H]1C(=O)O)C(=O)NCCCCNC(=N)N [E-64]", "value unit": "µM", "IC50": 6}

Entry source: paper PMC3965533
